Measured kinase still bound, per cent of control, listed per entry.
# assay.system: TBK1 (human) (UniProt Q9UHD2)
# Sequence (Q9UHD2 whole entry, looked up): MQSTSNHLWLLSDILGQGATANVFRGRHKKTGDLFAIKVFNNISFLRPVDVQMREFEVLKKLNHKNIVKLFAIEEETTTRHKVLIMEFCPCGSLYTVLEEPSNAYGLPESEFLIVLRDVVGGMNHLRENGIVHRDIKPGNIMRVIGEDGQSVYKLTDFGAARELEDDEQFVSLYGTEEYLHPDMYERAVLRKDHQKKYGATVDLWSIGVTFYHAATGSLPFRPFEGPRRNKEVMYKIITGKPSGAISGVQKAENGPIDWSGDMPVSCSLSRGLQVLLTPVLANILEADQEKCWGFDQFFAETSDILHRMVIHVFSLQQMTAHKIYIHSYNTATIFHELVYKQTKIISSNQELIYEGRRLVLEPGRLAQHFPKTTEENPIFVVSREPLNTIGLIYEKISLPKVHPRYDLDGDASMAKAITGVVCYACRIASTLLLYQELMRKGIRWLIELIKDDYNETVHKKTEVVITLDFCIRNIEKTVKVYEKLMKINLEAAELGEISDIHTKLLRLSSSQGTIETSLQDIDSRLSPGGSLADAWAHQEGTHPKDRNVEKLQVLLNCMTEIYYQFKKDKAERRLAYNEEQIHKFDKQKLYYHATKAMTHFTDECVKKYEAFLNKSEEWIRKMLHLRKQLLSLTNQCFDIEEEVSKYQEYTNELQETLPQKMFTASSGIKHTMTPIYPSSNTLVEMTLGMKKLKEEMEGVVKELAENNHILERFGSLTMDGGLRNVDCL
# assay.notes: KINOMEscan competition binding
# particulars: compound 10.0 µM
Just the number please, in %, no unit attached.

See these solved cases before continuing.
OCCCNc1cc(-c2ccnc(Nc3cccc(Cl)c3)n2)ccn1 ... 100
O=C(NC1CC1)c1cccc(-c2ccc3c(NC(=O)C4CC4)n[nH]c3c2)c1 ... 61

Problem: Which kinase still bound, per cent of control value belongs to CCOc1cc2ncc(C#N)c(Nc3ccc(OCc4ccccn4)c(Cl)c3)c2cc1NC(=O)/C=C/CN(C)C ?
Result: 100

Problem: Further, for CCN1CCN(Cc2ccc(Nc3ncc4c(n3)N(C)c3ccccc3C(=O)N4C)cc2C(F)(F)F)CC1 ?
Result: 60

Problem: Lookup COc1cc(N2CCN(C)CC2)ccc1Nc1nc(N)c(C(=O)c2c(Cl)cccc2Cl)s1
Result: 100
